# ASSAY SYSTEM: human 5-HT1a receptors (Homo sapiens, UniProt P08908)
# Construct: expressed in transfected cells; host or cells: CHO K1 cells
# ASSAY COMMENT: Competition radioligand binding, h5-HT1a
# RUN PARAMETERS: [3H]5-CT; membranes of CHO K1 cells; read-out: Ki 5-HT1A
pKi: −log10 of the molar value.

# MOLECULE, ASSAY SYSTEM, LT GT EQ, pKi
records = [
    ("N=C(NCc1cccc2ccccc12)NC(=O)N[C@@H](Cc1ccc(O)cc1)C(N)=O [Example 35]", "human 5-HT1a receptors (Homo sapiens, UniProt P08908)", "<", 5.40),
    ("N=C(NCc1cccc2ccccc12)NC(=O)N1CCC(Cc2ccccc2)CC1 [Example 29]", "human 5-HT1a receptors (Homo sapiens, UniProt P08908)", "=", 5.57),
    ("N=C(NCc1cccc2ccccc12)NC(=O)N1CCC2(CC1)C(=O)NCN2c1ccccc1 [Example 36]", "human 5-HT1a receptors (Homo sapiens, UniProt P08908)", "=", 6.24),
    ("Cc1ccc(CN2CCC(CNC(=O)NC(=N)NCc3cccc4ccccc34)CC2)cc1 [Example 76]", "human 5-HT1a receptors (Homo sapiens, UniProt P08908)", "=", 6.26),
]

* * *

# ASSAY SYSTEM: human 5HT2a receptors (Homo sapiens, UniProt P28223)
# Construct: expressed in transfected cells; host or cells: CHO K1 cells
# Sequence (P28223 whole entry): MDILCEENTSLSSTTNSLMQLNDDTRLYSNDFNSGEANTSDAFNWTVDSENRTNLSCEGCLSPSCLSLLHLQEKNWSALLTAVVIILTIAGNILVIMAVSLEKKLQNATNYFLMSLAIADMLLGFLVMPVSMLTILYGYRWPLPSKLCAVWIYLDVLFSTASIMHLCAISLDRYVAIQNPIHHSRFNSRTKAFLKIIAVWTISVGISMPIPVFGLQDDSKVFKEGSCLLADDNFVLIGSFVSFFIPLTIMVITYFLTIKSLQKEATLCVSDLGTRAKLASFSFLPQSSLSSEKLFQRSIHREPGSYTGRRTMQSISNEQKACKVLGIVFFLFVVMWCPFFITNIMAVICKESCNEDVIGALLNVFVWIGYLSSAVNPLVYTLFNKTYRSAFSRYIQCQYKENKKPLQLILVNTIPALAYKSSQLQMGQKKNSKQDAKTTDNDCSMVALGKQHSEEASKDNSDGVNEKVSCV
# ASSAY COMMENT: Competition radioligand binding, 5-HT2A
# RUN PARAMETERS: [3H]Ketanserin; membranes of CHO K1 cells; read-out: Ki 5-HT2A

# CHEMICAL STRING, Ki, µM
rows = [
    ("N=C(NCc1cccc2ccccc12)NC(=O)NCC1CCN(Cc2cccc3ccccc23)CC1", 0.011),
    ("N=C(NCc1cccc2ccccc12)NC(=O)NCC1CCN(Cc2ccc(F)cc2F)CC1", 0.0064),
    ("Cc1cc(C)cc(CN2CCC(CNC(=O)NC(=N)NCc3cccc4ccccc34)CC2)c1", 0.0098),
    ("CCOC(=O)N1CCN(C(=O)NC(=N)NCc2cccc3ccccc23)CC1", 0.018),
]

* * *

Each record here notes measured pKi.
# ASSAY SYSTEM: human 5-HT7B (h5-HT7b) receptors (Homo sapiens, UniProt P34969)
# Construct: expressed in transfected cells
# Sequence (P34969 1-432 limits assumed): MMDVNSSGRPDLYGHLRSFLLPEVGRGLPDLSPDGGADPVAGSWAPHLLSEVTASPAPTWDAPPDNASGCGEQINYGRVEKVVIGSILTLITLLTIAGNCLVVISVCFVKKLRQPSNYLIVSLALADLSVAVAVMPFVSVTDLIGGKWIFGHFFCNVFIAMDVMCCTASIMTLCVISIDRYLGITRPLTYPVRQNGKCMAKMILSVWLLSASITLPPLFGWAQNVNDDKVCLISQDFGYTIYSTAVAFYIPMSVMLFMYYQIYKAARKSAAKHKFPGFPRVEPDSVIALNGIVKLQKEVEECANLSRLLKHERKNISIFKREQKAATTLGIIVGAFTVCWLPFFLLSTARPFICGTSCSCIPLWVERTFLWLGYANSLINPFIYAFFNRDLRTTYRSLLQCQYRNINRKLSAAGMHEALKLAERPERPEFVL
# ASSAY COMMENT: Competition radioligand binding, h5-HT7b
# RUN PARAMETERS: [3H]5-CT; membranes of HEK 293 cells; read-out: Ki 5-HT7
pKi: −log10 of the molar value.
TEST READOUT: pKi

# CHEMICAL STRING, ASSAY SYSTEM, TEST RESULT
records = [
    ("N=C(NCc1cccc2ccccc12)NC(=O)N[C@H]1c2ccccc2C[C@H]1O", "human 5-HT7B (h5-HT7b) receptors (Homo sapiens, UniProt P34969)", 7.66),
    ("COc1ccc(CN2CCC(CNC(=O)NC(=N)NCc3cccc4ccccc34)CC2)cc1", "human 5-HT7B (h5-HT7b) receptors (Homo sapiens, UniProt P34969)", 7.72),
    ("N=C(NCc1cccc2ccccc12)NC(=O)NCc1cccs1", "human 5-HT7B (h5-HT7b) receptors (Homo sapiens, UniProt P34969)", 7.80),
    ("N=C(NCc1cccc2ccccc12)NC(=O)NCC1CCN(Cc2ccc3c(c2)OCO3)CC1", "human 5-HT7B (h5-HT7b) receptors (Homo sapiens, UniProt P34969)", 7.51),
    ("CNC(=O)NC(=N)NCc1c(OC)cccc1OC", "human 5-HT7B (h5-HT7b) receptors (Homo sapiens, UniProt P34969)", 7.92),
    ("COc1ccc(C(C)=O)cc1CN1CCC(CNC(=O)NC(=N)NCc2cccc3ccccc23)CC1", "human 5-HT7B (h5-HT7b) receptors (Homo sapiens, UniProt P34969)", 7.41),
    ("COc1cccc(CCNC(=O)NC(=N)NCc2cccc3ccccc23)c1OC", "human 5-HT7B (h5-HT7b) receptors (Homo sapiens, UniProt P34969)", 7.21),
    ("N=C(NCc1cccc2ccccc12)NC(=O)NC1CC1", "human 5-HT7B (h5-HT7b) receptors (Homo sapiens, UniProt P34969)", 7.89),
    ("CNC(=O)NC(=N)NCc1cccc(-c2ccccc2)c1", "human 5-HT7B (h5-HT7b) receptors (Homo sapiens, UniProt P34969)", 7.10),
]

* * *

// values below are reported pKi
# ASSAY SYSTEM: human 5-HT6 (h5-HT6) receptors (Homo sapiens)
# Construct: purchased Receptor Biology, Inc. (Beltsville, Md.); host or cells: HEK-293 cells
# Sequence (P50406 whole entry): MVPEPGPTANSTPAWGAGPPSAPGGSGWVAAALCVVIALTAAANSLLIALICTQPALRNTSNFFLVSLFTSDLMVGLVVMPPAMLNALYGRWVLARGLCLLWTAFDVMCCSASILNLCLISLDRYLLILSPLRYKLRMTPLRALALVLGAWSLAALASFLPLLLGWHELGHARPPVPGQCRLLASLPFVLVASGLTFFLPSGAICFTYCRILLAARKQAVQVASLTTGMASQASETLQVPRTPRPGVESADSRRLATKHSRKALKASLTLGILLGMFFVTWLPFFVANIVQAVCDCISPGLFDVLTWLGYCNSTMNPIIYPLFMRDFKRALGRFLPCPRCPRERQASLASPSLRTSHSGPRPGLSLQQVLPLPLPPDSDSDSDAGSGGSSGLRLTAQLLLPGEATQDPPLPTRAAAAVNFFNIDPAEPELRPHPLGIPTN
# ASSAY COMMENT: Competition radioligand binding, h5-HT6
# RUN PARAMETERS: [3H]LSD; membranes of HEK-293 cells; read-out: Ki 5-HT6
pKi: −log10 of the molar value.

# MOLECULE, LT GT EQ, pKi
rows = [
    ("CN(C)C(=O)NC(=N)NCc1cccc2ccccc12", "<", 5.00),
    ("N=C(NCc1cccc2ccccc12)NC(=O)NCc1cccc(CN)c1", "=", 6.17),
    ("N=C(NCc1cccc2ccccc12)NC(=O)NC1CCCCC1O (centres unmarked)", "=", 5.90),
    ("CNC(=O)NC(=N)NCc1c(OC)cccc1OC", "=", 5.20),
    ("CNC(=O)NC(=N)NCc1cccc2ccccc12", "=", 5.61),
    ("N=C(NCc1cccc2ccccc12)NC(=O)NCC1CCN(Cc2ccc3c(c2)OCO3)CC1", "=", 5.43),
    ("N=C(NCc1cccc2ccccc12)NC(=O)NCc1c(N)cccc1F", "=", 6.30),
    ("N=C(NCc1cccc2ccccc12)NC(=O)N[C@@H](Cc1ccc(O)cc1)C(N)=O", "=", 6.34),
    ("N=C(NCc1cccc2ccccc12)NC(=O)NCCc1c[nH]c2ccc(Cl)cc12", "=", 5.93),
    ("Cc1cccc(CN2CCC(CNC(=O)NC(=N)NCc3cccc4ccccc34)CC2)c1", "=", 6.06),
    ("CCOC(=O)N1CCN(C(=O)NC(=N)NCc2cccc3ccccc23)CC1", "<", 5.00),
    ("COc1ccccc1CN1CCC(CNC(=O)NC(=N)NCc2cccc3ccccc23)CC1", "=", 5.81),
    ("COc1cc(CNC(=O)NC(=N)NCc2cccc3ccccc23)cc(OC)c1OC", "=", 5.95),
    ("N=C(NCc1cccc2ccccc12)NC(=O)NC[C@@H]1CCCC[C@H]1O", "=", 6.30),
    ("N=C(NCc1cccc2ccccc12)NC(=O)NCCSCc1c(F)cccc1Cl", "=", 6.28),
    ("N=C(NCc1cccc2ccccc12)NC(=O)NCc1cccs1", "=", 5.87),
    ("CNC(=O)NC(=N)NCc1ccccc1Oc1ccccc1Cl", "=", 6.24),
    ("COc1ccc(CNC(=O)NC(=N)NCc2cccc3ccccc23)cc1", "=", 5.47),
    ("COCCCNC(=O)NC(=N)NCc1cccc2ccccc12", "=", 5.93),
    ("CCOc1ccccc1CNC(=N)NC(=O)NC", "=", 5.06),
    ("CNC(=O)NC(=N)NCc1cccc(-c2ccccc2)c1", "=", 5.47),
    ("C[C@@H](O)CNC(=O)NC(=N)NCc1cccc2ccccc12", "=", 5.63),
    ("N=C(NCc1cccc2ccccc12)NC(=O)NCC1CCN(Cc2cc(F)cc(F)c2)CC1", "=", 5.72),
]

* * *

# ASSAY SYSTEM: human 5-HT1a receptors (Homo sapiens, UniProt P08908)
# Construct: expressed in transfected cells; host or cells: CHO K1 cells
# Sequence (P08908 1-422): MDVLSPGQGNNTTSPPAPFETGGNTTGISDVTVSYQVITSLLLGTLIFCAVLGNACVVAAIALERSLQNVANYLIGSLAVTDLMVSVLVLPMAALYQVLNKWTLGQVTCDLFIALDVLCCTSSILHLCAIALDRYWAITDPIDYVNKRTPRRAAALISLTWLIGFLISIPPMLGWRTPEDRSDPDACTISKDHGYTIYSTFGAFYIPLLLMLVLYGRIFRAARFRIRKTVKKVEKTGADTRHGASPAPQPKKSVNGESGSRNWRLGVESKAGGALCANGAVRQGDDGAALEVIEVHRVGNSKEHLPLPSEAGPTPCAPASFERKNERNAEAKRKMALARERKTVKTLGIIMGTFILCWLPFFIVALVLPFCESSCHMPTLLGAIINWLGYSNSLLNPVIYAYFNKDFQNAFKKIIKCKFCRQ
# ASSAY COMMENT: Competition radioligand binding, h5-HT1a
# RUN PARAMETERS: [3H]5-CT; membranes of CHO K1 cells; read-out: Ki 5-HT1A
# Protocol: […] Data Analysis: Radioligand binding experiments were analyzed with Prism™ (Graphpad, San Diego, Calif.), a computer graphics and statistics program. […] Values for Ki calculated from IC50 values by the Cheng and Prussoff equation (Cheng, Y. and Prusoff, W. H., (1973), “Relationship between the inhibition constant (Ki) and the concentration of inhibitor which causes 50 per cent inhibition (I50) of an enzymatic reaction.” Biochemical Pharmacol. 22:3099-3108).
# Ki annotations

# CHEMICAL STRING, LT GT EQ, Ki [nM]
rows = [
    ("Cc1ccccc1CN1CCC(CNC(=O)NC(=N)NCc2cccc3ccccc23)CC1", "=", 690),
    ("CNC(=O)NC(=N)NCc1cccc(-c2ccccc2)c1", ">", 400),
    ("CC(=O)NC(=N)NCc1cccc2ccccc12", "=", 1530),
    ("CCOC(=O)N1CCN(C(=O)NC(=N)NCc2cccc3ccccc23)CC1", ">", 4000),
    ("COc1cccc(CCNC(=O)NC(=N)NCc2cccc3ccccc23)c1OC", "=", 170),
    ("N=C(NCc1cccc2ccccc12)NC(=O)NCC1CCN(Cc2cc(F)cc(F)c2)CC1", "=", 300),
    ("N=C(NCc1cccc2ccccc12)NC(=O)NCC1CCN(Cc2ccc(F)cc2)CC1", "=", 1090),
    ("CC(=O)Nc1ccc(NC(=O)NC(=N)NCc2cccc3ccccc23)cc1", "=", 220),
]
